Molecular target: M-phase inducer phosphatase 2 (Homo sapiens) (UniProt P30305)
Sequence (P30305 whole entry): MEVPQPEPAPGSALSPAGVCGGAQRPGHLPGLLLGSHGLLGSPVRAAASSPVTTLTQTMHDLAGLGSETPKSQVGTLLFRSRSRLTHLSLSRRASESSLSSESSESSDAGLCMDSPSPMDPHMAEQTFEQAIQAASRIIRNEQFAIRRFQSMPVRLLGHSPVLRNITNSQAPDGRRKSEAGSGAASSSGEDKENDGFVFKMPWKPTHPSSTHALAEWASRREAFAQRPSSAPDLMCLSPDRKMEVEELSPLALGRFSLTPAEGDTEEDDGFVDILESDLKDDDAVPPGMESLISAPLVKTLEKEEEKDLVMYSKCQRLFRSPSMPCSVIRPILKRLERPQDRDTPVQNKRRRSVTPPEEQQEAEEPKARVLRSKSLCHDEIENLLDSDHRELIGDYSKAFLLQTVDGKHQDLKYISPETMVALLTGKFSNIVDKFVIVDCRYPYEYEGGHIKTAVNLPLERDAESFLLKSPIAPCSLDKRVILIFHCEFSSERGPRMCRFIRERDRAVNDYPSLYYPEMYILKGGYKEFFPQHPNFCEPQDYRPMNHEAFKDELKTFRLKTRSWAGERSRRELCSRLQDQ
Assay: Inhibition of Cdc25B (unknown origin) at 5 ug/ml
What inhibition was measured for each of the following?
The reply should be a number in %, with the unit left off.

Suppose we examine the compound "COc1cccc(C(=O)Nc2nnc(-c3ccc(Oc4ccc([N+](=O)[O-])cc4[N+](=O)[O-])cc3)s2)c1" ; what inhibition value has been reported?
92.6

Suppose we examine the compound "O=C(Nc1nnc(-c2ccc(Oc3ccc([N+](=O)[O-])cc3[N+](=O)[O-])cc2)s1)c1ccccc1[N+](=O)[O-]" ; what inhibition value has been reported?
88.3

Suppose we examine the compound "O=C(Nc1nnc(-c2ccc(Oc3ccc([N+](=O)[O-])cc3[N+](=O)[O-])cc2)s1)c1cccc(Cl)c1" ; what inhibition value has been reported?
37

Suppose we examine the compound "O=C(Nc1nnc(-c2ccc(Oc3ccc([N+](=O)[O-])cc3[N+](=O)[O-])cc2)s1)c1ccc([N+](=O)[O-])cc1" ; what inhibition value has been reported?
97.7

Suppose we examine the compound "COc1cccc(C(=O)Nc2nnc(-c3ccc(Oc4ccc([N+](=O)[O-])cc4)cc3)s2)c1" ; what inhibition value has been reported?
2.52

Suppose we examine the compound "COc1ccccc1C(=O)Nc1nnc(-c2ccc(Oc3ccc([N+](=O)[O-])cc3[N+](=O)[O-])cc2)s1" ; what inhibition value has been reported?
17.5

Suppose we examine the compound "O=C(Nc1nnc(-c2ccc(Oc3ccc([N+](=O)[O-])cc3)cc2)s1)c1cccc(F)c1" ; what inhibition value has been reported?
81.7

Suppose we examine the compound "Cc1ccccc1C(=O)Nc1nnc(-c2ccc(Oc3ccc([N+](=O)[O-])cc3)cc2)s1" ; what inhibition value has been reported?
94

// provenance: ChEMBL document CHEMBL3352415
